System: Abeta 40 in cerebrospinal fluid (CSF) and brain
Assay: In vivo inhibition of beta-secretase (Abeta 40 reduction in CSF and brain)
Conditions: rat, CSF, Abeta 40, 3 mpk, after 4 hrs; read-out: CSF A-beta reduction % at 3 mpk
ENDPOINT_NAME: inhibition in vivo at 3 mg/kg (%)
The answer is to be given in %; state only the numeric part.

The molecule `NC1=N[C@@]2(CS1)c1cc(-c3cccnc3F)ccc1Oc1c2cc(C2=CCOCC2)nc1F` showed inhibition in vivo at 3 mg/kg equal to 73

Notebook: `CC#Cc1cncc(-c2ccc3c(c2)[C@@]2(COC(N)=N2)c2cc(C4=CCOCC4)cnc2O3)c1` , inhibition in vivo at 3 mg/kg read as 57

Summary for this molecule, `CC1(C)C=C(c2cc3c(c(F)n2)Oc2ccc(-c4cccnc4F)cc2[C@@]32CSC(N)=N2)CCO1` : inhibition in vivo at 3 mg/kg is 60

----------
Target: Beta Secretase enzyme (BACE) (Homo sapiens, UniProt P56817)
Sequence (P56817 46-501, species assumed): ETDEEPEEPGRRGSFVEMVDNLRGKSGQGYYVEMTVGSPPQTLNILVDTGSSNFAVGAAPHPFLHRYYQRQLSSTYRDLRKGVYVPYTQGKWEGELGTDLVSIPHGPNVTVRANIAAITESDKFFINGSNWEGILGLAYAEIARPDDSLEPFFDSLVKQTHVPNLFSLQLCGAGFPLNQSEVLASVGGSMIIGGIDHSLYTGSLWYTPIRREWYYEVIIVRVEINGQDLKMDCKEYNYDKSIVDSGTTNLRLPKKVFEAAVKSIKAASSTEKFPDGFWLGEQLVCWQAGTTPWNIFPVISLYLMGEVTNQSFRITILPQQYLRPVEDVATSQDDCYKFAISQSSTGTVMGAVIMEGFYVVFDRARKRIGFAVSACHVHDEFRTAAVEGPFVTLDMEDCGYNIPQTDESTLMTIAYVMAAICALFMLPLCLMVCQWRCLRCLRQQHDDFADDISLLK
Experiment: In vitro enzymatic BACE FRET (fluorescence resonance energy transfer) assay
Format: biochemical
Conditions: average IC50, enzyme assay; read-out: BACE 1 FRET assay
Provide the recorded IC50 for the entries that follow.
Returns: string containing the number followed by the unit.

Given item `NC1=N[C@@]2(CO1)c1cc(-c3ccccc3)ccc1Oc1cnc(C3CCOCC3)cc12` , the value recorded as its IC50 is 40.7 nM

The compound listed as `NC1=N[C@@]2(CO1)c1cc(-c3cccnc3F)ccc1Oc1c(F)cc([C@@H]3CCOC3)cc12` shows IC50 equal to 2.3 nM

Quick note, IC50 for `NC1=N[C@@]2(CO1)c1cc(-c3cncc(F)c3)ccc1Oc1cnc([C@@H]3CCCCO3)cc12` landed at 7.3 nM

Record `CC(C)(C)OCc1cnc2c(c1)[C@]1(COC(N)=N1)c1cc(-c3cccnc3F)c(F)cc1O2` . Reported IC50: 6.5 nM

// field: IC50; key: `Cc1ccnc(F)c1-c1ccc2c(c1)[C@@]1(COC(N)=N1)c1cc(-c3ccnc(F)c3)ncc1O2` ; value = 1.6 nM

Noted for `CC1(C)C=C(c2cc3c(c(F)n2)Oc2ccc(-c4cccnc4F)cc2[C@]32CSC(N)=N2)CCO1` : its IC50 reads 1.3 nM

Note to self: IC50 recorded for `NC1=N[C@@]2(CO1)c1cc(-c3cncc(F)c3)ccc1Oc1c2cc(N2CCOCC2)nc1F` was 0.3 nM

Looking up `CC1(C)CC(=O)N(c2cc(F)c3c(c2)[C@]2(COC(N)=N2)c2cc(-c4cccnc4)ccc2O3)C1` , I found its IC50 recorded as 1.4 nM

Consider `NC1=N[C@@]2(CO1)c1cc(-c3cccnc3)ncc1Oc1c(F)cc(C3=CCOCC3)cc12` . Its measured IC50 is 3.9 nM

What the record says about `NC1=N[C@@]2(CO1)c1cc(-c3cncc(C#CCO)c3)ccc1Oc1cnc(C3=CCCOC3)cc12` : IC50 is 0.5 nM

# compound `NC1=N[C@]2(CO1)c1cc(-c3cnccc3F)c(F)cc1Oc1ncc(C3=CCOCC3)cc12` ; its IC50 = 53.1 nM

IC50 recorded for this compound, COCC1SC(N)=N[C@]12c1cc(-c3cccnc3F)ccc1Oc1c(F)cc(OC)cc12 (stereo partly shown) , is 5070 nM

Record `CC#Cc1cncc(-c2ccc3c(c2)[C@@]2(CSC(N)=N2)c2cc(-c4ccnc(F)c4)cnc2O3)c1` , field IC50: 0.3 nM

The value of IC50 measured for the compound `NC1=N[C@@]2(CO1)c1cc(OCc3cccnc3)ccc1Oc1ncc(Br)cc12` turned out to be 3810 nM

Input COc1ccc2c(c1)C1(COC(N)=N1)c1cc(N3CCC(F)(F)C3)ncc1O2 (stereo not shown) . Output IC50: 1730 nM

compound `NC1=N[C@]2(CS1)c1cc(-c3cccnc3)ccc1Oc1ncc(C3=CCOCC3)cc12` , IC50 observed: 2.5 nM

----------
Test system: Aβ40 in conditioned medium of cells stably expressing Amyloid Precursor Protein (APP)
Experiment: In vitro BACE cell-based assay (Aβ40 in conditioned medium, sandwich ELISA)
Conditions: Homo sapiens, HEK293, read-out: HEK cell assay (uM), average IC50, HEK cells
Hi! Just check whether IC50 is below 0.006 µM. Below gives yes, equal or above gives no.

Lab note: IC50 threshold 0.006 µM. Does this molecule come in strictly under it? NC1=N[C@@]2(CO1)c1cc(-c3cccnc3F)c(F)cc1Oc1c(F)cc(C3=CCOCC3)cc12 (single isomer, unassigned) yes

Say whether its IC50 is strictly beneath 0.006 µM. Entry: `COc1ccc(-c2cc3c(cn2)Oc2ccc(-c4cccnc4F)cc2[C@@]32COC(N)=N2)cc1F` no

Is 0.006 µM strictly greater than the molecule's reported IC50? molecule: `CC(C)(C)/C=C/c1ccc2c(c1)[C@]1(COC(N)=N1)c1cc(-c3cncnc3)c(F)cc1O2` no

Is 0.006 µM strictly greater than the molecule's reported IC50? molecule: `NC1=N[C@@]2(CS1)c1cc(-c3cccnc3F)ccc1Oc1cnc(C3=CCOCC3)cc12` no

Here's an entry: `NC1=N[C@@]2(CO1)c1cc(-c3cnccc3F)ccc1Oc1cnc(C3=CCOCC3)cc12` . Is its IC50 below 0.006 µM? yes

----------
For each record, write down the corresponding pIC50.
Test system: Aβ40 in conditioned medium of cells stably expressing Amyloid Precursor Protein (APP)
Test: In vitro BACE cell-based assay (Aβ40 in conditioned medium, sandwich ELISA)
Details: Homo sapiens, HEK293, average IC50; read-out: HEK cell assay
In textbook form, pIC50 equals minus log to base ten of the concentration in mol/L.

Here `NC1=N[C@@]2(CS1)c1cc(-c3cccnc3F)ccc1Oc1c2cc(-c2cccnc2F)nc1F` was tested on Aβ40 in conditioned medium of cells stably expressing Amyloid Precursor Protein (APP), and its pIC50 came to 6.85

# lookup: `CC1(C)C=C(c2cc3c(c(F)n2)Oc2ccc(-c4cccnc4F)cc2[C@@]32CSC(N)=N2)CCO1` on Aβ40 in conditioned medium of cells stably expressing Amyloid Precursor Protein (APP), pIC50 = 6.25

Entry `Cc1ccn(-c2cnc3c(c2)[C@]2(COC(N)=N2)c2cc(-c4cccnc4)ccc2O3)n1` ; assay system Aβ40 in conditioned medium of cells stably expressing Amyloid Precursor Protein (APP); pIC50 recorded at 6.97

----------
Answer each item with its documented IC50.
Biological target: Beta Secretase enzyme (BACE) (Homo sapiens, UniProt P56817)
Test: In vitro enzymatic BACE FRET (fluorescence resonance energy transfer) assay
Assay type: biochemical
Conditions: average IC50, enzyme assay; read-out: BACE 1 FRET assay
Respond numerically; units are nM and should not be typed.

Noted IC50 for `NC1=N[C@@]2(CO1)c1cc(OCc3cccc(C(F)(F)F)c3)ccc1Oc1ncc(-c3cccnc3)cc12` , tested on Beta Secretase enzyme (BACE) (Homo sapiens, UniProt P56817): 68.3

Tested system Beta Secretase enzyme (BACE) (Homo sapiens, UniProt P56817); IC50 recorded for `CC#Cc1cc(F)c2c(c1)[C@]1(COC(N)=N1)c1cc(-c3cccnc3F)ccc1O2` was 1.9

The compound `NC1=N[C@@]2(CO1)c1cc(-c3cncc(F)c3)ccc1Oc1c(F)cc(N3C[C@@H]4C[C@H]3CO4)cc12` , when measured on Beta Secretase enzyme (BACE) (Homo sapiens, UniProt P56817), yielded IC50 of 0.8

Measured IC50 for this entry `NC1=N[C@@]2(CO1)c1cc(-c3cccnc3F)ccc1Oc1c2cc([C@@H]2CCCCO2)nc1F` on Beta Secretase enzyme (BACE) (Homo sapiens, UniProt P56817): 1.4

----------
Please respond with reported pIC50 for every item in the list.
Target: Beta Secretase enzyme (BACE) (Homo sapiens, UniProt P56817)
Assay: In vitro enzymatic BACE FRET (fluorescence resonance energy transfer) assay
Assay type: biochemical
Details: average IC50, enzyme assay; read-out: BACE 1 FRET assay
// returns pIC50 (minus log10 of molar concentration), number only

// sample NC1=N[C@@]2(CO1)c1cc(-c3cccc(Cl)c3F)ccc1Oc1ncc(C3=CCOCC3)cc12 [Example 170] , its pIC50 was 8.82

// recorded pIC50 for CC1(C)CN(c2cnc3c(c2)[C@]2(COC(N)=N2)c2cc(C#CC4CC4)ccc2O3)CCO1 [Example 179] : 7.95

Field pIC50 (entry CC#Cc1cncc(-c2ccc3c(c2)[C@]2(COC(N)=N2)c2cc(C4CCOCC4)nc(F)c2O3)c1 [Example 754] ) reads 6.81

pIC50 for COc1nc(C2CCCOC2)cc2c1Oc1ccc(-c3cccnc3)cc1[C@@]21COC(N)=N1 (stereo partly drawn) [Example 845] is 7.81

The compound listed as CC1(C)C[C@@H](c2cc3c(cn2)Oc2ccc(-c4ccc(F)nc4)cc2[C@@]32COC(N)=N2)CCO1 [Example 379] shows pIC50 equal to 7.63

The compound listed as COc1ccc(-c2cc3c(cn2)Oc2ccc(-c4cccnc4F)cc2[C@@]32COC(N)=N2)cc1 [Example 568] shows pIC50 equal to 8.64

Note to self: pIC50 recorded for COc1cc(F)c2c(c1)[C@@]1(COC(N)=N1)c1cc(-c3cncnc3)c(F)cc1O2 [Example 555] was 6.54

Reported pIC50 for NC1=N[C@@]2(CS1)c1cc(-c3cncc(F)c3)ccc1Oc1cnc(C3=CCOCC3)cc12 [Example 619] was 9.40

Entry under test: NC1=N[C@]2(CO1)c1cc(C3=CCOCC3)cc(F)c1Oc1ccc(-c3cncnc3)c(F)c12 [Example 1042] . Its pIC50 was 7.87

pIC50 for N#Cc1cccc(-c2ccc3c(c2)[C@@]2(COC(N)=N2)c2cc(N4CC[C@@H](F)C4)nc(F)c2O3)c1 [Example 919] is 9.40

Form field pIC50, entry CC1(C#Cc2ccc3c(c2)[C@@]2(COC(N)=N2)c2cc(N4CCC(F)(F)C4)ncc2O3)COC1 [Example 163] : 7.76

The compound CC1(COc2cc(F)c3c(c2)[C@@]2(CSC(N)=N2)c2cc(-c4cccnc4F)ccc2O3)COC1 [Example 793] showed pIC50 equal to 6.75

COc1ccc(F)c(-c2ccc3c(c2)[C@@]2(COC(N)=N2)c2cc(C4=CCOCC4)cnc2O3)c1 [Example 323] has a reported pIC50 of 8.85

Lookup result for CC(C)(C)C#Cc1ccc2c(c1)[C@@]1(COC(N)=N1)c1cc(N3CCOCC3)cnc1O2 [Example 464] ; measured pIC50: 7.89

Summary for this compound, NC1=N[C@@]2(CS1)c1cc(-c3cnccc3F)ccc1Oc1ncc(C3=CCCOC3)cc12 [Example 773] : pIC50 is 9.10

Value of pIC50 reported for the compound COc1ccncc1-c1ccc2c(c1)[C@@]1(COC(N)=N1)c1cc(C3=CCOCC3)ncc1O2 [Example 653] is 7.98

The compound identified as NC1=N[C@@]2(CO1)c1cc(-c3cncnc3)c(F)cc1Oc1c(F)cc(C3CCOCC3)cc12 [Example 1040] registered its pIC50 at 8.82

Value of measured pIC50 for the entry CC(C)(O)C#Cc1ccc2c(c1)[C@]1(COC(N)=N1)c1cc(-c3cncnc3)c(F)cc1O2 [Example 336] : 8.19

Lab book: pIC50 of NC1=N[C@@]2(CO1)c1cc(-c3cncc(N4CC[C@@H](F)C4)c3)ccc1Oc1cnc(Cl)cc12 [Example 429] noted as 5.49

pIC50 in this record for COc1cncc(-c2ccc3c(c2)[C@@]2(COC(N)=N2)c2cc(C4=CCOCC4)ncc2O3)c1 [Example 144] : 8.80

Notebook: COC(C)(C)C#Cc1cnc2c(c1)[C@]1(COC(N)=N1)c1cc(-c3cncc(F)c3)c(F)cc1O2 [Example 641] , pIC50 read as 9.05

Data point: COc1cccc(Nc2ccc3c(c2)[C@@]2(COC(N)=N2)c2cc(N4CCOCC4)cc(F)c2O3)c1 [Example 198] ; pIC50 = 7.11

# pIC50 (compound: NC1=N[C@@]2(CS1)c1cc(-c3cccnc3)c(F)cc1Oc1c(F)cc(C3=CCOCC3)cc12 [Example 881] ) is 9.30

Lab book: pIC50 of CC#Cc1cncc(-c2ccc3c(c2)[C@@]2(COC(N)=N2)c2cc(Cl)nc(OC)c2O3)c1 [Example 829] noted as 7.52

The value of pIC50 measured for the compound CC(C)(O)C#Cc1cncc(-c2ccc3c(c2)[C@@]2(COC(N)=N2)c2cc(C4=CCOCC4)ncc2O3)c1 [Example 818] turned out to be 8.31

# pIC50 of COc1cc(F)c2c(c1)[C@]1(COC(N)=N1)c1cc(-c3cncc(C#CC4(C)COC4)c3)ccc1O2 [Example 821] = 7.29

The recorded pIC50 for entry NC1=N[C@@]2(CS1)c1cc(-c3cccnc3F)ccc1Oc1c(F)cc(N3CC[C@@H](F)C3)cc12 [Example 1075] equals 8.82

Entry CC#Cc1cncc(-c2ccc3c(c2)[C@@]2(COC(N)=N2)c2cc(OCC4(C)COC4)cc(F)c2O3)c1 [Example 949] ; pIC50 = 9.40

Consider NC1=N[C@@]2(CS1)c1cc(-c3cccnc3F)ccc1Oc1c2cc(C2=CCCOC2)nc1F [Example 1028] . Its measured pIC50 is 9.70

Noted for COc1ccc(-c2cc(F)c3c(c2)[C@]2(COC(N)=N2)c2cc(-c4cncc(F)c4)ccc2O3)nn1 [Example 290] : its pIC50 reads 9.10
